The values you see were collected from patent US20150203579A1.

Quick list: Max Geom. Mean MFI @ 100 nM per entry.
# tested.on: full length human PD-1 on HEK293/hPD-1 cells (human, UniProt Q15116 25-288)
# Sequence (Q15116 25-288 limits assumed): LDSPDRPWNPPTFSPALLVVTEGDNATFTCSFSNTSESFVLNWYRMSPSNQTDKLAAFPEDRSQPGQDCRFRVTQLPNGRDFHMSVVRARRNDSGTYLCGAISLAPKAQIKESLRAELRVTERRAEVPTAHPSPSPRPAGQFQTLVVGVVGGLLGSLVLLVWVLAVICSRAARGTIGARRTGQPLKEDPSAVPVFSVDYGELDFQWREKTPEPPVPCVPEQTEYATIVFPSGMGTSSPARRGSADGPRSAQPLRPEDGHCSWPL
# experimental.protocol: FACS dose response, HEK293/hPD-1 cells
Kindly format the answer as number then unit.

binder	result
H2aM7798N (antibody, V domains shown, human variable regions, mouse IgG2a Fc; also called H2M7798N) VH: EVQLLESGGVLVQPGGSLRLSCAASGFTFSNFGMTWVRQAPGKGLEWVSGISGGGRDTYFADSVKGRFTISRDNSKNTLYLQMNSLKGEDTAVYYCVKWGNIYFDYWGQGTLVTVSS VL: DIQMTQSPSSLSASVGDSITITCRASLSINTFLNWYQQKPGKAPNLLIYAASSLHGGVPSRFSGSGSGTDFTLTIRTLQPEDFATYYCQQSSNTPFTFGPGTVVDFR	20900 MFI

Qu. Read off the recorded Max Geom. Mean MFI @ 100 nM for H1M7800N (antibody, V domains shown, human variable regions, mouse IgG1 Fc) VH: EVQLVESGGGLVQPGGSLRLSCAASGFTVSNNYMSWVRQAPGKGLEWVSVIYSGGFTYYTDSVKGRFTISRHNSKNTLYLQMNSLRAEDTAVYYCARYYYDTSDYWTFFDYWGQGTLVTVSS VL: EIVMTQSPATLSVSPGERATLSCRASQSVSSNLAWYQQKPGQAPRLLIYGASTRATGIPARFSGSGSGTEFTLTISSLQSGDFAVYYCQQYNNWPLTFGGGTKVEIN
Ans. 20800 MFI

Qu. Read off the recorded Max Geom. Mean MFI @ 100 nM for H1M7799N (antibody, V domains shown, human variable regions, mouse IgG1 Fc) VH: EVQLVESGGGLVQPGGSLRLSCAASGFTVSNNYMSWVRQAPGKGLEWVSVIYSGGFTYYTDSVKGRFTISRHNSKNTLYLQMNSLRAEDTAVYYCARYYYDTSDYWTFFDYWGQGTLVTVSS VL: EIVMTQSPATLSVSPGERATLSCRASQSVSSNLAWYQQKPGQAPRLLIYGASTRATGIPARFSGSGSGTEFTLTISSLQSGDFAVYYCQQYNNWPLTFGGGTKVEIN
Ans. 24400 MFI

Qu. Read off the recorded Max Geom. Mean MFI @ 100 nM for H2aM7780N (antibody, V domains shown, human variable regions, mouse IgG2a Fc; also called H2M7780N) VH: QVQLVESGGGVVQSGRSLRLSCAASGFTFSSYGMHWVRQAPGKGLEWVAVIWYDGSNIYYSDSVKGRFTISRANSKNTLYLQMNSLRAEDTAVYYCARPGHWNYFFEYWGQGTLVTVSS VL: DIQMTQSPSSLSASVGDRVTITCRASQSINNYLNWYQQKPGKAPKLLIYTASSLQSGVPSRFSGSGSGTDFTLTISSLQPEDFATYYCQQSYSTPPLTFGQGTQLEIK
Ans. 18400 MFI
